test-target: T1, recombinant human RANTES (huRANTES, Peprotech) (human, UniProt P13501 24-91)
T1 sequence: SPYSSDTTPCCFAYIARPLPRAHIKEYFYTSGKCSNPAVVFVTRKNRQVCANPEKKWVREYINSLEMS
method: cell-based or functional assay
measured-quantity: Chemotaxis IC50 (nM), 0.2 nM huRANTES; L1.2-hCCR5 cells; IgG1 format
Express the result in nM but write the number alone.

Completed entries (count: 2):
{"binder": "2D1 antibody, IgG1 format (antibody, V domains shown) VH: QVQLVQSGAEVKKPGASVKVSCKVSGYTLNDFAMHWVRQAPGKGLEWMGGYVPEDGDTIYAQKFQGRVTMTEDTSTDTAYMELSSLRSEDTAVYYCATDPLYSGSLSYWGQGTTVTVSS VL: SYVLTQPPSVSVAPGQTARITCGGNNIESKSVHWYQQKPGQAPVLVVYDDSDRPSGIPERFSGSNSGNTATLTISRVEAGDEADYYCQVWDSNTDHWVFGGGTKVTVL", "unit": "nM", "observed": 1.3}
{"binder": "1E4 antibody, IgG1 format (antibody, V domains shown, also called antibody 1E4 purified from CHO supernatant) VH: QVQLVQSGAEVKKPGASVKVSCKVSGYTLTEFAMHWVRQAPGKGLEWMGGFVPEDGETIYAQKFQGRVTMTEDTSTDTAYMELSSLRSEDTAVYYCATDPLYEGSFSVWGQGTTVTVSS VL: SYVLTQPPSVSVAPGQTARITCGGNNIESKSVHWYQQKPGQAPVLVVYDDSDRPSGIPERFSGSNSGNTATLTISRVEAGDEADYYCQVWDSNTDHWVFGGGTKLTVLG", "unit": "nM", "observed": 0.034}

Here is another binder to look at.
Ask: So what does the record say about Chemotaxis IC50 (nM), 0.2 nM huRANTES; L1.2-hCCR5 cells; IgG1 format for 7B5 antibody, IgG1 format (antibody, V domains shown) VH: QVQLVQSGAEVKKPGASVKVSCKVSGYTLNDFAMHWVRQAPGKGLEWMGGYVPEDGDTIYAQKFQGRVTMTEDTSTDTAYMELSSLRSEDTAVYYCATDPLYSGSLSYWGQGTTVTVSS VL: SYVLTQPPSVSVAPGQTARITCGGNNIESKSVHWYQQKPGQAPVLVVYDDSDRPSGIPERFSGSNSGNTATLTISRVEAGDEADYYCQVWDSGPVWWIFGGGTKLTVL ?
Result: 0.31

Cited source for all entries: patent US20120201826A1
